# Tested on: HeLa
# PROTOCOL TEXT: MALAT1 nuclear FISH intensity, robust Z-score vs DMSO; higher = more nuclear MALAT1 lncRNA, active = -3 or less
# CONDITION INFO: 10 µM; 6 h
Counter-ions that a name gives are not always drawn.
Select the matching outcome among t for active, f for inactive

Check out these entries, answers already filled in.
{"columns": ["COMPOUND", "LABEL CLASS"],
 "data": [
  ["C=C1[C@@H](C)[C@H]2[C@H](Cc3ccccc3)NC(=O)[C@]23[C@H](OC(C)=O)/C=C/[C@@](C)(O)C(=O)[C@@H](C)C/C=C/[C@H]3[C@@H]1O", "f"],
  ["CC1C=CC=CCCC=CC=CC=CC=CC(OC2OC(C)C(O)C(N)C2O)CC2OC(O)(CC(O)C(O)CCC(O)CC(O)CC(O)CC(=O)OC(C)C(C)C1O)CC(O)C2C(=O)O (stereo unspecified)", "f"],
  ["NC(=O)C[S+]([O-])C(c1ccccc1)c1ccccc1 (stereo unspecified) [Modafinil (Schedule Iv)]", "f"],
  ["O=C1c2ccccc2C(=O)N1SC(Cl)(Cl)Cl", "f"],
  ["O=C1CSC(c2ccccc2Cl)c2cc(Cl)ccc2N1 (stereo unspecified)", "f"],
  ["C=C(C)[C@H]1Cc2c(ccc3c2O[C@@H]2COc4cc(OC)c(OC)cc4[C@@H]2C3=O)O1", "f"]
]}

Data request: I'd appreciate the recorded outcome for COc1cc2c(cc1OC)C1CC(=O)C(CC(C)C)CN1CC2 (stereo unspecified) from this test.
Data returned: f

Data request: Next compound: CC[C@@H](CO)NC(=O)[C@@H]1C=C2c3cccc4[nH]cc(c34)C[C@H]2N(C)C1 [Methylergonovine Maleate]
Data returned: f

Data request: And then CC(C)n1cc2c3c(cccc31)C1C[C@@H](C(=O)N[C@H]3CCC[C@H]3O)CN(C)[C@@H]1C2 (stereo partly specified) , what is it?
Data returned: f

Data request: Likewise for `Oc1ccc2c3c1O[C@H]1[C@@H](O)CC[C@@]4(O)[C@@H](C2)N(CC2CCC2)CC[C@]314` ?
Data returned: f

Data request: Repeat with `COc1c(C[C@@H](C)OC(=O)Oc2ccc(O)cc2)c2c3c(C[C@@H](C)OC(=O)c4ccccc4)c(OC)c(=O)c4c(O)cc(OC)c(c5c(OC)cc(O)c(c1=O)c52)c43`
Data returned: f

---

Some molecules, each annotated with its measured MALAT1 nuclear FISH intensity.
# Test system: HeLa;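 also: High-content confocal imaging of branched-DNA amplified FISH in 384-well plates, Hoechst-defined nuclei, score is well value minus plate DMSO median over DMSO robust SD, four wells per compound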
# PROTOCOL TEXT: MALAT1 nuclear FISH intensity, robust Z-score vs DMSO; higher = more nuclear MALAT1 lncRNA, active = -3 or less
# CONDITION INFO: 10 µM; 6 h
Number, no unit, nothing else.

These recorded examples may help you get a feel for the data.
{"columns": ["MOLECULE", "MALAT1 nuclear FISH intensity"],
 "data": [
  ["CCOC(=O)CN1C(=O)CC(C[C@@H](O)C2C[C@@H](C)C[C@H](C)C2=O)CC1=O (stereo partly drawn) [Cycloheximide-N-ethylethanoate]", -0.0786],
  ["CCCCCCC(=O)O[C@H]1CC[C@H]2[C@@H]3CCC4=CC(=O)CC[C@]4(C)[C@H]3CC[C@]12C [Testosterone Enanthate]", 0.416],
  ["O=C1Nc2ccc(Cl)cc2C(c2ccccc2Cl)=NC1O (stereo not drawn) [Lorazepam]", 0.647],
  ["CC1=C2C(=O)[C@H]3[C@@H](CC=C4C[C@@H](O)CC[C@@]43C)[C@@H]2CC[C@]12O[C@@H]1C[C@H](C)CN[C@H]1[C@H]2C [Jervine]", 0.967],
  ["C[C@H](N)C(=O)N[C@@H](C)C(=O)N[C@@H](Cc1ccccc1)C(=O)CCl", 0.276]
]}

# next molecule below
Data request: Consider the molecule C=C1C/C(=C/C)C(=O)O[C@@H]2CCN3CC=C(COC(=O)[C@]1(C)O)[C@H]23 [Seneciophylline] and give its measured MALAT1 nuclear FISH intensity.
Data returned: -0.29
